test system: Collagen-Induced Platelet Aggregation; assay: Inhibition of collagen-induced platelet aggregation in human platelet-rich plasma; type: cell-based; conditions: incubation in human citrated platelet-rich plasma; read-out: IC50 collagen
Kindly state IC50 for each of the entries shown.
Answers are plain numbers, in µM.

Consider the reported IC50 for these compounds:
| Compound | IC50, µM |
| --- | --- |
| COc1ccc2c(c1)c(CC(=O)O)c(C)n2C(=O)c1ccc(Cl)cc1 [Indomethacin, reference compound] | 1 |
| CC(=O)Oc1ccccc1C(=O)O [Aspirin, reference compound] | 30 |

Any idea what IC50 was measured for N#Cc1[nH]c2ccc(C(O)(C(F)(F)F)C(F)(F)F)cc2c1-c1ccccc1 ? 3.5

----------
Assay: Gastric ulcer induction (rats)
Parameters: species or system male Wistar rats
Settings: rat, in vivo, po
Experimental: The test is a modification of that described by Brodie et al., Gastroenterology, 53, pages 604-610 (1967). Male Wistar rats (Royal Hart Laboratories) were deprived of food for 18 hours prior to testing. Tap water was permitted ad libitum. Test compounds were administered orally four hours to autopsy. The rats were sacrificed under ethyl ether anesthesia, opened along the ventral midline and the stomachs removed. […]
Recorded metric: TD50 at 4 h

Any idea what TD50 at 4 h was measured for N#Cc1[nH]c2ccc(C(O)(C(F)(F)F)C(F)(F)F)cc2c1-c1ccccc1 ? > 250 mg/kg
